The following compounds are shown together with reported GFP response relative to DMSO values.
# Protocol details: LAP4-GFP expression modulators in yeast, confirmation, cell-based, cherry picks, flow cytometry, mother/daughter gates (AID 2271);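 also: ratio of sample to DMSO plate mean so 100% equals DMSO level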
# Experimental context: S. cerevisiae LAP4-GFP strain, 3 h, at 10 µM, hits give high values, 100 means same as DMSO control
Write it as a number; the unit % goes unstated.

Below, 5 compounds whose answers are already recorded.
CC(C)(C)c1cc(C(c2cccnc2)N2CCN(CCO)CC2)cc(C(C)(C)C)c1O (centres undefined); 151
COC(=O)c1ccc(N2C(=O)CC(SCCN)C2=O)cc1 (centres undefined); 98.9
Nc1nc2c(ncn2COCCO)c(=O)[nH]1; 101
Cc1ccc(N2CC(C(=O)OCc3nnc(-c4ccccc4)o3)CC2=O)cc1 (centres undefined); 102
Cc1ccc(C(=O)Oc2oc(-c3ccco3)nc2C=Nc2ccc(Cl)cc2)cc1; 207

What does the data say about its GFP response relative to DMSO? Entry: O=c1oc(/C=C/c2ccc([N+](=O)[O-])s2)nc2ccccc12 184

Could you share which GFP response relative to DMSO value was measured for CCCc1nnc(N2C(=O)c3cccc4cccc(c34)C2=O)s1 ? 115

So what's the measured GFP response relative to DMSO for this one? Cc1ccc(NC(=O)CCCSc2nc3ccccc3[nH]2)cc1 96.1

// query GFP response relative to DMSO value for entry CCOc1ccc(Nc2nc(N(C)c3ccccc3)nc(N)c2[N+](=O)[O-])cc1 96.5

Which measured GFP response relative to DMSO value corresponds to COc1ccc(-c2cc(C(F)(F)F)nc(S(C)(=O)=O)n2)cc1 ? 136

Find the recorded GFP response relative to DMSO belonging to Cc1ccc(N2C(=O)CC(Sc3ncn[nH]3)C2=O)cc1C (centres undefined) and report it. 137

Can you look up the measured GFP response relative to DMSO of O=C1C=CC(=O)N1c1cccc(-c2ccccc2)c1 for me? 220

GET /values?readout=GFP response relative to DMSO&item= Cc1[nH][nH]c(=O)c1C(c1ccc(-c2ccc(Cl)c(Cl)c2)o1)c1c(C)[nH][nH]c1=O 173

Quick one: GFP response relative to DMSO of CCCn1c(=O)c(C(=O)Nc2ccccc2C(=O)OC)c(O)c2ccccc21 ? 92.6

Given COc1cc(/C=C/C(=O)c2c(O)cc(C)oc2=O)cc(OC)c1O , state its recorded GFP response relative to DMSO. 106

Entry CNC(=O)/C(C#N)=C/c1c(N(Cc2ccccc2)Cc2ccccc2)nc2ccccn2c1=O : reported GFP response relative to DMSO = ? 100

Give the measured GFP response relative to DMSO of O=C(O)C1CCC(NSc2ccccc2[N+](=O)[O-])CC1 (centres undefined) . 145

Find the recorded GFP response relative to DMSO belonging to O=C(Nc1nccs1)C1CCCN1S(=O)(=O)c1ccc(F)cc1 (centres undefined) and report it. 96.2

If you can, please state the reported GFP response relative to DMSO value of CCOC(=O)C(=Cc1ccc(F)cc1)C(=O)OCC . 107

Which GFP response relative to DMSO value is on record for Cc1ccc(-n2nc(C)c3c(C)c(CCC(=O)O)c(C)nc32)cc1 ? 101

Name the reported GFP response relative to DMSO value associated with the compound Cc1cc(C)c2c(c1)/C(=C/C(=O)c1ccc(Br)s1)C(=O)N2 99.5

Entry Brc1ccc2c(c1)OCCOCCOc1cc(Br)ccc1OCCOCCOCCO2 : reported GFP response relative to DMSO = ? 126

Please look up its GFP response relative to DMSO: Cc1ccc(C2=NN(S(C)(=O)=O)C(c3ccc4nccnc4c3)C2)cc1 (centres undefined) 101
